# Target system: Calpain-1 catalytic subunit (Homo sapiens, UniProt P07384)
# Sequence (P07384 whole entry): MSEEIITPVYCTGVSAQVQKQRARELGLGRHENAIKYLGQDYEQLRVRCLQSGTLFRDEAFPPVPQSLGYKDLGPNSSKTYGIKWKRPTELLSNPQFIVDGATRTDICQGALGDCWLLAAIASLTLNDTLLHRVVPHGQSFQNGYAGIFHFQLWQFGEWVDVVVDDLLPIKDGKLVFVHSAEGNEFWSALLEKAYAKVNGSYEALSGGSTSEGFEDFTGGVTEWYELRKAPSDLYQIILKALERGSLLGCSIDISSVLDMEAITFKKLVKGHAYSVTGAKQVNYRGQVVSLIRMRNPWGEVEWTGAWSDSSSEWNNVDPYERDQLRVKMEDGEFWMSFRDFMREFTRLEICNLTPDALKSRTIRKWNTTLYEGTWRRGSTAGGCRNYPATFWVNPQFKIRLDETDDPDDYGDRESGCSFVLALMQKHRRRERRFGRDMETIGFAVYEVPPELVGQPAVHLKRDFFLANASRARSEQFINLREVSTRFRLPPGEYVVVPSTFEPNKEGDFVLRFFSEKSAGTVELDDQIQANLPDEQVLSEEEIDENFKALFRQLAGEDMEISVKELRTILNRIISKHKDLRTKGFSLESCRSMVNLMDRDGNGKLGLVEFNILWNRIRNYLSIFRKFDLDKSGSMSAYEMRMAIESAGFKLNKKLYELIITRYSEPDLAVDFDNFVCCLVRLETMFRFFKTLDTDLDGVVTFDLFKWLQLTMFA
# Assay: Compound was tested for its inhibitory activity against calpain […]
# Design: species or system Streptomyces griseus
Assay metric: IC50 (nM)

{"columns": ["Chem smiles", "Target system", "Unit string", "Value measured"],
 "data": [
  ["CC(C)c1ncc(Cc2ccccc2)[nH]c1=O", "Calpain-1 catalytic subunit (Homo sapiens, UniProt P07384)", "nM", 1200]
]}
